# PROTOCOL: ATG_NRF2_ARE_CIS: Attagene CIS-FACTORIAL HepG2 Assay for human Nuclear Factor Erythroid 2 Related Factor 2 (NFR2) response to Antioxidant Response Elements (ARE) (AID 2282992)
# CONDITION_SET: HepG2 Attagene ARE/NRF2 reporter, transcription factor activity; actives raise or lower the signal
Activity calls are given as the source filed them. Rule for the calls: active = hit-call score of the fitted dose curve at least 0.9, where 1 is the maximum; inactive = score below 0.9.
Classes used: True (active), False (inactive)

COMPOUND	CAT
COc1ccc2cc(S(=O)(=O)N[C@H](CC(=O)N[C@H](Cc3ccc(CN4[C@H](C)CCC[C@@H]4C)cc3)C(=O)N(C)C(C)C)c3ccc4c(c3)OCO4)ccc2c1	True
O=C(O)Cc1cc(I)c(Oc2ccc(O)c(I)c2)c(I)c1	True
CN(C)c1ccc(C(=C2C=CC(=[N+](C)C)C=C2)c2ccc(N(C)C)cc2)cc1	True
O=C(O)c1ccccc1C(=O)OCc1ccccc1	False
OC12N=C(c3ccccc3)SC1Cc1cc(Cl)ccc12 (stereo not given)	True

###

# PROTOCOL: ATG_FoxO_CIS: Attagene CIS-FACTORIAL HepG2 Assay for human Forkhead box O (FoxO) (AID 2282943)
# CONDITION_SET: HepG2 Attagene cis-reporter, FoxO element, mRNA; actives raise or lower the signal
Activity calls are given as the source filed them. The calls were made as follows: active = hit-call score of the fitted dose curve at least 0.9, where 1 is the maximum; inactive = score below 0.9.
Classes used: 1.0 (active), 0.0 (inactive)

COMPOUND	CAT
CCCCCc1ccc(N)cc1	0.0
O=CCCCC=O	0.0
CC(C)(C)c1cc(/C=C2\SC(N)=NC2=O)cc(C(C)(C)C)c1O	0.0
Cc1c2ccccc2c(C)c2c1ccc1ccccc12	0.0
O=C=NCCCCCCN=C=O	0.0
O=C(OCCCCCCOC(=O)c1ccccc1)c1ccccc1	0.0
CCCCCCCCCCCCO	0.0
Cc1cc(F)ccc1-c1cc(N2CC[C@@H](O)[C@H]2CO)ncc1N(C)C(=O)C(C)(C)c1cc(C(F)(F)F)cc(C(F)(F)F)c1	0.0
CCN(CC)C(=O)c1cc(S(=O)(=O)Cc2ccccc2)c(N2CCC(c3ccccc3)CC2)cc1N(CC)CCN(C)C	0.0
CCOC(=O)O[C@H](C)OC(=O)c1ccc2c(c1)cc(C(=O)NC1CCN(C(C)C)CC1)n2Cc1cc(-c2ccc(Cl)s2)on1	0.0
Oc1ccccc1	0.0
CC(=O)N1CCN(c2ccc(OC[C@H]3CO[C@](Cn4ccnc4)(c4ccc(Cl)cc4Cl)O3)cc2)CC1	0.0
NCc1cccc(C2CCN(C(=O)c3ccc(C#Cc4ccccc4F)o3)CC2)c1	0.0
COc1cccc([C@H](O)C2CCN(CCc3ccc(F)cc3)CC2)c1OC	0.0
c1ccc2ccccc2c1	0.0
CCCC(=O)OCCC(C)C	0.0
O=C1CCC(C2CCCCC2)CC1	0.0
CC(C)(C)c1csc(-c2cc3cc(OCc4ccccc4CC(=O)O)ccc3o2)n1	0.0
O=C(O)c1ccccc1C(=O)OCc1ccccc1	0.0
CC1=CC(=O)/C(=C(/C)O)C(=O)O1	0.0
O=c1c(-c2ccc(O)cc2)coc2cc(O)cc(O)c12	0.0
O=C(O)Cn1c(=O)n(Cc2ccc(Br)cc2F)c(=O)c2ccc(Cl)cc21	0.0
Cc1ccc(C(C)C)cc1	0.0
COc1cc(C(=O)NC2CCN(C)CC2)ccc1Nc1ncc2c(n1)N(C1CCCC1)CC(F)(F)C(=O)N2C	1.0
CN1C(=O)N(c2ccccc2Br)Cc2cnc(Nc3ccc4c(c3)OCC(CO)O4)nc21 (stereo not given)	0.0
CN1C(=O)CC[C@H]1c1cccnc1	0.0
O=C1c2ccccc2C(=O)N1CCc1noc(-c2ccc(CN3CCCCCC3)s2)n1	0.0
CCCCCCCCCC(=O)O	0.0
OCCO	0.0
CC/C(=C(/CC)c1ccc(O)cc1)c1ccc(O)cc1	0.0
C[C@]12CC[C@@H]3c4ccc(O)cc4CC[C@H]3[C@@H]1CC[C@H]2O	0.0
CCCOC(=O)c1cc(O)c(O)c(O)c1	0.0
COCC(C)OCC(C)OCC(C)O (stereo not given)	0.0
CCCCCCCC[Si](OCC)(OCC)OCC	0.0
O=C(Nc1ccc(Cl)cc1)Nc1ccc(Cl)c(Cl)c1	0.0
COc1ccc2cc(S(=O)(=O)N[C@H](CC(=O)N[C@H](Cc3ccc(CN4[C@H](C)CCC[C@@H]4C)cc3)C(=O)N(C)C(C)C)c3ccc4c(c3)OCO4)ccc2c1	0.0
Cc1cn([C@H]2C[C@H](N=[N+]=[N-])[C@@H](CO)O2)c(=O)[nH]c1=O	0.0
OC12N=C(c3ccccc3)SC1Cc1cc(Cl)ccc12 (stereo not given)	0.0
Clc1ccccc1C(c1ccccc1)(c1ccccc1)n1ccnc1	0.0
CCCCOC(=O)CC(CC(=O)OCCCC)(OC(C)=O)C(=O)OCCCC	0.0
